Method summary: Plasma and urine pharmacokinetics in cycle 1
Type: in vivo, human
Assay context: human, plasma, oral, 200 mg, AUC0−∞, single dose, 200 mg QD cohort, N = 15, geometric mean
Measurement kind: AUC(0-inf) (µM·h)
Give the value in µM·h but do not write µM·h after it.

(Q) Please report the recorded AUC(0-inf) for COc1cc(C(=O)NC2CCN(C)CC2)c(F)cc1Nc1ncc(C(F)(F)F)c(Oc2cccc3c2C(=O)N(C)C3)n1 [BI 853520] .
(A) 26.3

* * *

Method summary: Plasma and urine pharmacokinetics in cycle 1
Assay type: in vivo, human
Assay context: human, plasma, oral, 200 mg, tmax, single dose, 200 mg QD cohort, N = 15, median
Measurement kind: Tmax (h)
Give the value in h but do not write h after it.

(Q) Please report the recorded Tmax for COc1cc(C(=O)NC2CCN(C)CC2)c(F)cc1Nc1ncc(C(F)(F)F)c(Oc2cccc3c2C(=O)N(C)C3)n1 [BI 853520] .
(A) 2

* * *

Method summary: Plasma and urine pharmacokinetics in cycle 1
Format: in vivo, human
Assay context: human, plasma, oral, 200 mg, Vz/F, single dose, 200 mg QD cohort, N = 15, geometric mean
Measurement kind: Vd/F (L)
Give the value in L but do not write L after it.

(Q) Please report the recorded Vd/F for COc1cc(C(=O)NC2CCN(C)CC2)c(F)cc1Nc1ncc(C(F)(F)F)c(Oc2cccc3c2C(=O)N(C)C3)n1 .
(A) 391
